Biological target: ERAP1 (Homo sapiens, UniProt Q9NZ08)
Sequence (Q9NZ08 whole entry): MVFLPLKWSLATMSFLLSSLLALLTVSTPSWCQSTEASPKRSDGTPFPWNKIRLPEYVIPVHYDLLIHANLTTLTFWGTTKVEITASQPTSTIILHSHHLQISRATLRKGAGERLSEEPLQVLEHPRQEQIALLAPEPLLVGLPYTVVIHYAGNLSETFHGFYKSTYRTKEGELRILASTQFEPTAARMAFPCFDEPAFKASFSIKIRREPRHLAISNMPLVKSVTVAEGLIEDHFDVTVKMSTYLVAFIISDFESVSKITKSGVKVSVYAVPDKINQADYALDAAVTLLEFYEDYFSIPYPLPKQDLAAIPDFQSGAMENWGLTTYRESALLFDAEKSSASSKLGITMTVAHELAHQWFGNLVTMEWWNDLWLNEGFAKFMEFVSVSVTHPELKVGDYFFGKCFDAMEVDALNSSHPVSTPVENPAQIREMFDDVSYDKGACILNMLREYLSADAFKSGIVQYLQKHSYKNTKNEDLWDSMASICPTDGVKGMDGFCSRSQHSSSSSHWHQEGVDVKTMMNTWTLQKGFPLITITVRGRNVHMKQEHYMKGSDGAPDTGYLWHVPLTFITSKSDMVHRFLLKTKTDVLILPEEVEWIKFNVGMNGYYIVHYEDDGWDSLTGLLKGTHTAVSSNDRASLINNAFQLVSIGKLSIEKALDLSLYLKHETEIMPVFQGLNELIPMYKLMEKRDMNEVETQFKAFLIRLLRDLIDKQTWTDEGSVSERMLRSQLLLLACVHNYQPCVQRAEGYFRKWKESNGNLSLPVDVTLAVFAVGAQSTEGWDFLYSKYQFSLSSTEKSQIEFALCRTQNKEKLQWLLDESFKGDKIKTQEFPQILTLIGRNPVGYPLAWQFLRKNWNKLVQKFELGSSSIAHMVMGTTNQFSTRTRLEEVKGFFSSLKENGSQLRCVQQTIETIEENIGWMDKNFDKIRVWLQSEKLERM
Assay: Test of trimming of N-terminal amino acid by ERAP1 (Experimental Example 10, Examples 85-103)
Type: biochemical
Conditions: MAGE-A10 254-262 peptide obtained by ERAP1 trimming; from HPLC AUC
readoutKind: formation rate of GLYDGMEHL (SEQ ID NO: 19) (%)

1. H-RCGLYDGMEHL-OH [Example 93] = 0.0
2. H-LCGLYDGMEHL-OH [Example 100] = 0.0
3. H-TCGLYDGMEHL-OH [Example 88] = 7.3
